# System: Cysteinyl leukotriene receptor (Cavia porcellus)
# Protocol Text: Inhibition of the LTE4- induced contraction of guinea pig tracheal spirals at 10 uM.
# Particulars: Trachea
Tick True if inhibition is 20% or greater. Tick False if inhibition is less than 20%.

{"Compound": "COc1cc(C(=O)O)ccc1Cn1ccc2ccc(NC(=O)c3ccccc3)cc21", "Test Target": "Cysteinyl leukotriene receptor (Cavia porcellus)", "Class Label": "False"}
{"Compound": "CCN(CC)C(=O)Nc1ccc2ccn(Cc3ccc(C(=O)O)cc3OC)c2c1", "Test Target": "Cysteinyl leukotriene receptor (Cavia porcellus)", "Class Label": "False"}
{"Compound": "CCCCOC(=O)Nc1ccc2cn(Cc3ccc(C(=O)O)cc3OC)nc2c1", "Test Target": "Cysteinyl leukotriene receptor (Cavia porcellus)", "Class Label": "True"}
{"Compound": "COc1cc(C(=O)O)ccc1Cn1ccc2ccc(NC(=O)Cc3ccc(C(F)(F)F)cc3)cc21", "Test Target": "Cysteinyl leukotriene receptor (Cavia porcellus)", "Class Label": "False"}
{"Compound": "CCCCCC(=O)Nc1ccc2nn(Cc3ccccc3C(=O)O)cc2c1", "Test Target": "Cysteinyl leukotriene receptor (Cavia porcellus)", "Class Label": "False"}
{"Compound": "CCCCCCNc1ccc2ccn(Cc3ccc(C(=O)O)cc3OC)c2c1", "Test Target": "Cysteinyl leukotriene receptor (Cavia porcellus)", "Class Label": "True"}
{"Compound": "CCCCC(C(=O)Nc1ccc2ccn(Cc3ccc(C(=O)O)cc3OC)c2c1)c1ccccc1 (stereo not given)", "Test Target": "Cysteinyl leukotriene receptor (Cavia porcellus)", "Class Label": "True"}
{"Compound": "COc1cc(C(=O)O)ccc1Cn1ccc2ccc(NC(=O)CCCc3ccccc3)cc21", "Test Target": "Cysteinyl leukotriene receptor (Cavia porcellus)", "Class Label": "True"}
{"Compound": "CCCCCC(=O)Nc1ccc2cnn(Cc3ccc(C(=O)O)cc3)c2c1", "Test Target": "Cysteinyl leukotriene receptor (Cavia porcellus)", "Class Label": "True"}
{"Compound": "CCC(C(=O)Nc1ccc2cn(Cc3ccc(C(=O)O)cc3OC)nc2c1)c1ccccc1 (stereo not given)", "Test Target": "Cysteinyl leukotriene receptor (Cavia porcellus)", "Class Label": "True"}
